- measurement_target: T1, AFP158/HLA-A*02:01 complex (human)
- T1 construct: flowed as analyte in SPR
- experiment_notes: SPR, crude scFv captured, pMHC analyte;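 further: complex injected at several concentrations over the chip, association phase then running buffer for dissociation, KD derived from on- and off-rates computed from both curves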
property_label: koff (s⁻¹)
Report only the number, with the unit s⁻¹ understood.

binder | property_label | measured
AS170036 VL1VH1-57M98I108A (scFv, also called 79-AS170036 VL1VH1-57M98I108A) scFv: QSALTQPRSVSGSPGQSVTISCAGTSSDVGSENYVSWYQQHPGKAPKLMIYQVNKRASGVPDRFSGSKSGNTASLTISGLQAEDEADYYCASYRSSDINIVFGGGTKLTVLGGGGSGGGGSGGGGSEVQLVESGGGLVQPGGSLRLSCAASGFTFSSYAMSWVRQAPGKGLEWVSTINSGTGMPYYADSVKGRFTISRDNSKNTLYLQMNSLRAEDTAVYYCAKNFFDGSWFLAPPAMDYWGQGTLVTVSSHHHHHH | koff | 0.0018
AS170036 VL1VH1-57K98Q108S (scFv, also called 75-AS170036 VL1VH1-57K98Q108S) scFv: QSALTQPRSVSGSPGQSVTISCAGTSSDVGSENYVSWYQQHPGKAPKLMIYQVNKRASGVPDRFSGSKSGNTASLTISGLQAEDEADYYCASYRSSDQNIVFGGGTKLTVLGGGGSGGGGSGGGGSEVQLVESGGGLVQPGGSLRLSCAASGFTFSSYAMSWVRQAPGKGLEWVSTINSGTGKPYYADSVKGRFTISRDNSKNTLYLQMNSLRAEDTAVYYCAKNFFDGSWFLSPPAMDYWGQGTLVTVSSHHHHHH | koff | 0.00086
AS170036 VL1VH1-57M98Q108D (scFv, also called 83-AS170036 VL1VH1-57M98Q108D) scFv: QSALTQPRSVSGSPGQSVTISCAGTSSDVGSENYVSWYQQHPGKAPKLMIYQVNKRASGVPDRFSGSKSGNTASLTISGLQAEDEADYYCASYRSSDQNIVFGGGTKLTVLGGGGSGGGGSGGGGSEVQLVESGGGLVQPGGSLRLSCAASGFTFSSYAMSWVRQAPGKGLEWVSTINSGTGMPYYADSVKGRFTISRDNSKNTLYLQMNSLRAEDTAVYYCAKNFFDGSWFLDPPAMDYWGQGTLVTVSSHHHHHH | koff | 0.0018
AS170036 VL1VH1-56N98Q108S (scFv, also called 57-AS170036 VL1VH1-56N98Q108S) scFv: QSALTQPRSVSGSPGQSVTISCAGTSSDVGSENYVSWYQQHPGKAPKLMIYQVNKRASGVPDRFSGSKSGNTASLTISGLQAEDEADYYCASYRSSDQNIVFGGGTKLTVLGGGGSGGGGSGGGGSEVQLVESGGGLVQPGGSLRLSCAASGFTFSSYAMSWVRQAPGKGLEWVSTINSGTNSPYYADSVKGRFTISRDNSKNTLYLQMNSLRAEDTAVYYCAKNFFDGSWFLSPPAMDYWGQGTLVTVSSHHHHHH | koff | 0.0019

Let's switch to this binder now.
The binder AS170036 VL1VH1-57M98Q108S (scFv, also called 84-AS170036 VL1VH1-57M98Q108S) scFv: QSALTQPRSVSGSPGQSVTISCAGTSSDVGSENYVSWYQQHPGKAPKLMIYQVNKRASGVPDRFSGSKSGNTASLTISGLQAEDEADYYCASYRSSDQNIVFGGGTKLTVLGGGGSGGGGSGGGGSEVQLVESGGGLVQPGGSLRLSCAASGFTFSSYAMSWVRQAPGKGLEWVSTINSGTGMPYYADSVKGRFTISRDNSKNTLYLQMNSLRAEDTAVYYCAKNFFDGSWFLSPPAMDYWGQGTLVTVSSHHHHHH showed koff equal to 0.0021
